Please go through the items and note down their koff.
assayed system: T1, full length human GPC3 His (human, UniProt P51654 25-559, limits assumed)
T1 construct: also called full length human GPC3 protein; not shown: His tag
procedure text: SPR (Biacore T200), full length human GPC3 His immobilised, IgG1 in solution
Write it as a number; the unit s⁻¹ goes unstated.

In: Please report koff for the following binder: anti-human GPC3 IgG1 antibody clone 121 (antibody, V domains shown) VH: CQSVEESGGRLVTPGTPLTLTCTVSGFSLSTYWMTWVRQAPGKGLEWIGIINPAGSAYYASWAKGRFTISKTSSATVDLKMTSLTAVDTATYFCAGGGGMDPWGPGTLVTVSS VL: DPVLTQTPSSVSAAVGGTVTISCQSSQNIIKDYLSWFQQKPGQPPKRLIYKTSTLPSGVPSRFKGSGSGTEFTLTISDLECDDAATYYCAASYSGNIYVFGGGTEVVVKR
Out: 0.0015

In: Please report koff for the following binder: anti-human GPC3 IgG1 antibody clone 49 (antibody, V domains shown) VH: CQSVEESGGRLVTPGTPLTLTCTVSGFSLSTYWMTWVRQAPGKGLEWIGIINPSGSAYYASWAKGRFTISKTSSATVDLKMTSLTAADTATYFCAGGGGMDPWGPGTLVTVSS VL: DPVLTQTPSSVSAAVGGTVSISCQSSQSIVKNYLSWFQQKPGQPPKRLIYKASTLPSGVPSRFKGSGSGTEFTLTISDLECDDAATYYCAASYSDNIYVFGGGTEVVVKR
Out: 0.0017

In: Please report koff for the following binder: anti-human GPC3 IgG1 antibody clone 8 (antibody, V domains shown) VH: CQSVEESGGRLVTPGTALTLTCTVSGFSLSTYWMTWVRQAPGKGLEWIGIINPGGSAYYASWAKGRFTISKTSSATVDLKMTSLTAADTATYFCAGGGGMDPWGPGTLVTVSS VL: DPVLTQTPSSVSAAVGGTVSISCQSSQSIIKNYLSWFQHKPGQPPKRLIYRASTLPSGVPSRFEGSGSGTEFTLTISDLECDDAATYYCAASYSDNIYVFGGGTEVVVKR
Out: 0.00042

In: Please report koff for the following binder: anti-human GPC3 IgG1 antibody clone 22 (antibody, V domains shown) VH: CQSVEESGGRLVTPGTPLTLTCTVSGFSLSTYWMTWVRQAPGKGLEWIGIINPTGRAYYASWAKGRFTISKTSSATVDLKMTSLTAADTATYFCAGGGGMDPWGPGTLVTVSS VL: DPVLTQTPSSVSAAVGGTVTINCQSSQSVYSNYLSWFQKKPGQPPKRLIYKASTLVSGVPSRFVGSGSGTEFTLTISDLECDDAATYYCAASYSGNIYVFGGGTEVVVKR
Out: 0.00052

In: Please report koff for the following binder: anti-human GPC3 IgG1 antibody clone 74 (antibody, V domains shown) VH: QCQSVEESGGRLVTPGTPLTLTYTVSGFSLNNYDMSWVRQAPGKGLQYIGWINSGGTAYYASWAKGRFTISKTSSTTVDLKMTSPTTEDTATYFCARHRYGYYGDIWGPGTLVTVSL VL: DPVLTQTPSSVSAAVGGTVTINCQSSQNVYNNNRLAWYQQKLGQPPKLLIYFASKLASGVPSRFSGSGSGTQFTLTISGVQCDDAATYYCAGGYNTIVDNGFGGGTEVVVKR
Out: 0.00034
